# subject-of-test: rat TRPA1 (Rattus norvegicus)
# Sequence (Q6RI86 whole entry): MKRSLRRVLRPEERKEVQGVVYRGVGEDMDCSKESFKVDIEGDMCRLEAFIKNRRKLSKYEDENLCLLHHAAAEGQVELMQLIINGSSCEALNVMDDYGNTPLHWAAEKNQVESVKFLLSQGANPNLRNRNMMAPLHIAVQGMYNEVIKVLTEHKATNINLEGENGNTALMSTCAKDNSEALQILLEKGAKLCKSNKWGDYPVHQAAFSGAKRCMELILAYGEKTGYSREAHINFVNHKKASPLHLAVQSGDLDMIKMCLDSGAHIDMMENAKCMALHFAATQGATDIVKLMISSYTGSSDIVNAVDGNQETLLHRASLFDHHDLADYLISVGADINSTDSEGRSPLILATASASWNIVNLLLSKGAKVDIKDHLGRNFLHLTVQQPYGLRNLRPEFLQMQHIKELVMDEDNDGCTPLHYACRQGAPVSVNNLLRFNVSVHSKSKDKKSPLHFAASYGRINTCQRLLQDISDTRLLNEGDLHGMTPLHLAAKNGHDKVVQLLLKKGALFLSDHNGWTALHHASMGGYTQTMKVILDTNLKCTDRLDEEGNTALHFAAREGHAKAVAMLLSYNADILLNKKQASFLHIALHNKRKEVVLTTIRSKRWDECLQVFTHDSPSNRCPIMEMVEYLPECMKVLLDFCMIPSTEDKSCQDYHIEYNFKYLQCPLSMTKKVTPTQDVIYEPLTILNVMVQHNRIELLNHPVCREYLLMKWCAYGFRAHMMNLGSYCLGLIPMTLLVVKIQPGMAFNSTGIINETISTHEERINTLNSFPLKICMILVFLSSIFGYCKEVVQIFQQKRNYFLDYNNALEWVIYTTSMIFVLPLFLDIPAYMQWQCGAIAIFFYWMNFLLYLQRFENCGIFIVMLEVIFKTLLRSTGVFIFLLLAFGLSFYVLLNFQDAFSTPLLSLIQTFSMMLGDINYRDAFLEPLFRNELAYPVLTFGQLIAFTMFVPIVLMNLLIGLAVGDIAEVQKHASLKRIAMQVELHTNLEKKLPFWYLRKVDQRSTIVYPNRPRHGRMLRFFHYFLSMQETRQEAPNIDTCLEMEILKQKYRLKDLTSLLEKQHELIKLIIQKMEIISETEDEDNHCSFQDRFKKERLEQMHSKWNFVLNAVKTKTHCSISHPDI
# test-summary: 45Calcium uptake assay: inhibition of AITC induced cellular uptake of radioactive calcium, rat TRPA1 expressing CHO cells
# condition-details: class symbols, AITC 10 μM
pIC50: −log10 of the molar value.
Can you tell me pIC50 for the items I'm about to list?

Please review the entries below; each comes with its answer.
Cc1oc2c(c1CC(=O)Nc1nc(-c3cc(Cl)cc(OC(F)(F)F)c3)cs1)c(=O)n(C)c(=O)n2C [Example 71] = 7.00 to 7.30
Cn1c(=O)c2c(CC(=O)Nc3nc(-c4cc(Cl)c(OC(F)F)c(Cl)c4)cs3)coc2n(C)c1=O [Example 38] = < 7.00
Cn1c(=O)c2c(CC(=O)Nc3nc(-c4ccc(OCC(F)(F)F)c(Cl)c4)cs3)coc2n(C)c1=O [Example 31] = 7.00 to 7.30
Cn1c(=O)c2c(CC(=O)Nc3nc(-c4ccc(Cl)c(OC(F)(F)F)c4)cs3)coc2n(C)c1=O [Example 19] = 7.00 to 7.30
Cn1c(=O)c2c(CC(=O)Nc3nc(-c4ccc(Cl)c(C(F)(F)F)c4)cs3)coc2n(C)c1=O [Example 18] = 7.00 to 7.30

Respectfully, I request pIC50 for each entry included below.
1. Cc1oc2c(c1CC(=O)Nc1nc(-c3cccc(C(F)(F)F)c3F)cs1)c(=O)n(C)c(=O)n2C [Example 61]
2. Cn1c(=O)c2c(CC(=O)Nc3nc(-c4cc(F)cc(C(F)(F)F)c4)cs3)coc2n(C)c1=O [Example 21]

Return:
> 7.30
> 7.30

Respectfully, I request pIC50 for each entry included below.
1. Cc1oc2c(c1CC(=O)Nc1nc(-c3cc(F)c(OCC4CC4)c(F)c3)cs1)c(=O)n(C)c(=O)n2C [Example 89]
2. Cn1c(=O)c2c(CC(=O)Nc3nc(-c4ccc(OC(F)F)c(F)c4)cs3)coc2n(C)c1=O [Example 23]

Return:
1. 7.00 to 7.30
2. < 7.00

###

Can you tell me inhibition at 1 µM for the items I'm about to list?
# subject-of-test: human TRPA1 (Homo sapiens, UniProt O75762)
# Construct: expressed in transfected cells; host or cells: CHO cells (G-418 selection)
# Sequence (O75762 whole entry): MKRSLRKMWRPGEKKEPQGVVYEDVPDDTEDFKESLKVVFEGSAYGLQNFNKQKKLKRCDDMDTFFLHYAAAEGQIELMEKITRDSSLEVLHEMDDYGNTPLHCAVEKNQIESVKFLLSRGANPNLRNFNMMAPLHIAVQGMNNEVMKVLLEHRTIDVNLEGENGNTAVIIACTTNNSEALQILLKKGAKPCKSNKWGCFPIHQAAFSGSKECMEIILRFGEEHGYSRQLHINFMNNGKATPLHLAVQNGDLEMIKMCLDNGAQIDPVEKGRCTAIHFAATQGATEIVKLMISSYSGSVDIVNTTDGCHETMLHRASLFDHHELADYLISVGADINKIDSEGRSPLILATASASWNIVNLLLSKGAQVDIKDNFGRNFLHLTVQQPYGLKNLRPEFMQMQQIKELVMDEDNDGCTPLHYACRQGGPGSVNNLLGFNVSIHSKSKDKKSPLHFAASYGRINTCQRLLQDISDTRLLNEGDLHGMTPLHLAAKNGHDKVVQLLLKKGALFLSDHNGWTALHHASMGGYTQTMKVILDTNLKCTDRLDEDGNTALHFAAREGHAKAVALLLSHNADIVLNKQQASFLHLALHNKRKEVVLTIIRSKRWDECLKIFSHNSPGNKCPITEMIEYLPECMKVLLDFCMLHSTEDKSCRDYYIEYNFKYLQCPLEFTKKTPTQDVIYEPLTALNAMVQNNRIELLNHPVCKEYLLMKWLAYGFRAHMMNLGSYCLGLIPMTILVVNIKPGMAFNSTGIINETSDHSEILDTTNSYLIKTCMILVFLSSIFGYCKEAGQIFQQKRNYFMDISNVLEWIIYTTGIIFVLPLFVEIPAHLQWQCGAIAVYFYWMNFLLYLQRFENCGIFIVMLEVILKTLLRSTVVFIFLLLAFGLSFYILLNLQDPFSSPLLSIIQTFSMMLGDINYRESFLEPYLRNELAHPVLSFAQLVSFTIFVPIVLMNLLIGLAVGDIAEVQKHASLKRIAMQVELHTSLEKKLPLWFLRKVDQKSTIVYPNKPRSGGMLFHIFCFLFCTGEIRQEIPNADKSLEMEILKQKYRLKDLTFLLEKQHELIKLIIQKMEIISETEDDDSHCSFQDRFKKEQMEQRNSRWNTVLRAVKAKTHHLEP
# test-summary: 45Calcium uptake assay: inhibition of AITC induced cellular uptake of radioactive calcium, human TRPA1 expressing CHO cells
# Format: cell-based
# condition-details: 1.0 μM compound, AITC 30 μM, read-out: human TRPA1 Percentage inhibition at 1.0 μM
Answers are plain numbers, in %.

Respectfully, I request inhibition at 1 µM for each entry included below.
1. Cn1c(=O)c2c(CC(=O)Nc3nc(-c4cc(F)c(OCCC(F)(F)F)c(F)c4)cs3)coc2n(C)c1=O
2. Cn1c(=O)c2c(CC(=O)Nc3nc(-c4ccc(OCC(F)(F)F)c(Br)c4)cs3)coc2n(C)c1=O
3. Cc1oc2c(c1CC(=O)Nc1nc(-c3cccc(OC(F)(F)F)c3)cs1)c(=O)n(C)c(=O)n2C

Return:
1. 95.6
2. 99.8
3. 99.1

Numbers sourced from patent US20120178766A1.
